target or test system: PI3K alfa (Homo sapiens)
Construct: His tag (C); made in house; host or cells: baculovirus BV1075; Tn5 (Trichoplusia ni) or TiniPro insect cells
Sequence (P42336 with tags, fused parts or gaps limits assumed): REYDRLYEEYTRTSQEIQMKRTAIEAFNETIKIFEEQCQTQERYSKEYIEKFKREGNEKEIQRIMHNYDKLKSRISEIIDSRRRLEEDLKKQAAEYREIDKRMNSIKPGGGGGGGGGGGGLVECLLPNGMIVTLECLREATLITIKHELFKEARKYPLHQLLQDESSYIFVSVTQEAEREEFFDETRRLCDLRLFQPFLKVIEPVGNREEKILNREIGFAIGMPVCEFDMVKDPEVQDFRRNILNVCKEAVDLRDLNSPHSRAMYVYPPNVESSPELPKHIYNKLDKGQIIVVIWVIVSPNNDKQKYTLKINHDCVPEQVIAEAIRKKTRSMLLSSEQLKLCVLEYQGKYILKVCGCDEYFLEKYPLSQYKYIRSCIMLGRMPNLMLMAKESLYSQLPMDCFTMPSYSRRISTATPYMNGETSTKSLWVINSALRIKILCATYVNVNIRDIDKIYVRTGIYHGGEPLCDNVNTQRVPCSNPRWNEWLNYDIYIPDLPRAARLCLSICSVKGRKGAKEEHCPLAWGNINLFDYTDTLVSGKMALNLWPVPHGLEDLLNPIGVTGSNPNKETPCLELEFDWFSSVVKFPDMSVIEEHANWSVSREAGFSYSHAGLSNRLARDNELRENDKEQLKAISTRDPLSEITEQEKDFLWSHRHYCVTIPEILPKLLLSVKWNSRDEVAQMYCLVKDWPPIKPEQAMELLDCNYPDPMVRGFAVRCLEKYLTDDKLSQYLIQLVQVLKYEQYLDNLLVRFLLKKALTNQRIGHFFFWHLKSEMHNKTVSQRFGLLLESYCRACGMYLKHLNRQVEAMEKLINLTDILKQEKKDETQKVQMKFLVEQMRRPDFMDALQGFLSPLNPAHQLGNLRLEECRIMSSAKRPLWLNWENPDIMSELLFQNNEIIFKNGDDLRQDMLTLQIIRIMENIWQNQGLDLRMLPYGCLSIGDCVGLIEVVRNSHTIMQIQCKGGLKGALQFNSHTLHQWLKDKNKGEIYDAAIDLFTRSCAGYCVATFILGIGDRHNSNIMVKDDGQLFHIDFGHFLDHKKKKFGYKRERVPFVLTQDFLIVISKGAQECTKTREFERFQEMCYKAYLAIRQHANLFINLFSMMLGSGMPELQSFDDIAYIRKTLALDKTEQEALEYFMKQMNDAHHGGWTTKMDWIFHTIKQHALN
protocol description: PI3K alpha kinase assay (Kinase-Glo luminescence)
Format: biochemical
experimental parameters: read-out: EPK_PI3Kalfa/IC50
measured quantity: IC50 (nM)

Take a look at these entries with their results.
molecule: CNc1ncc(-c2ccc3ncc4c(c3c2)n(-c2ccc(C(C)(C)O)nc2C)c(=O)n4C)cc1F
reported result: 23
--
molecule: CCOc1ccc(-c2ccc3ncc4c(c3c2)n(-c2ccc(C(C)(C)O)nc2C)c(=O)n4C)cn1
reported result: 84

a. COc1cc(-c2ccc3ncc4c(c3c2)n(-c2ccc(N3CC(O)C3)nc2C)c(=O)n4C)cnc1CO
b. CCOc1ccc(-c2ccc3ncc4c(c3c2)n(-c2ccc(N(C)C)nc2C)c(=O)n4C)cn1
-- ask Between item a and item b , which reported IC50 is smaller? Refer to your chosen entry by its label in the reply.
-- reply a
(a: 31 nM, b: 55 nM)

I. CCOc1ccc(-c2ccc3ncc4c(c3c2)n(-c2ccc(N3CCC(O)C3)nc2C)c(=O)n4C)cn1 (stereo not drawn)
II. CCNc1cc(-c2ccc3ncc4c(c3c2)n(-c2ccc(N(C)CCOC)nc2C)c(=O)n4C)cnc1C
III. CCNc1ncc(-c2ccc3ncc4c(c3c2)n(-c2ccc(N3CC[C@H](O)C3)nc2C)c(=O)n4C)c(OC)n1
-- ask Order the records so the highest IC50 appears first and the lowest last. Put the labels in the requested order and list them out.
-- reply I, III, II
(I: 39 nM, III: 27 nM, II: 12 nM)

A. CCNc1ncc(-c2ccc3ncc4c(c3c2)n(-c2ccc(N3CC[C@H](O)C3)nc2C)c(=O)n4C)cn1
B. COCc1cc(-c2ccc3ncc4c(c3c2)n(-c2ccc(C(F)(F)F)nc2C)c(=O)n4C)cnc1N
C. CCNc1cc(-c2ccc3ncc4c(c3c2)n(-c2ccc(C)nc2C)c(=O)n4C)cnc1C
-- ask Order the entries by their reported IC50, beginning at the minimum. Put the labels in the requested order and list them out.
-- reply B, C, A
(B: 12 nM, C: 19 nM, A: 44 nM)

I. COc1ncc(-c2ccc3ncc4c(c3c2)n(-c2ccc(N3CC[C@H](O)C3)nc2C)c(=O)n4C)c(OC)n1
II. COCCN(C)c1ccc(-n2c(=O)n(C)c3cnc4ccc(-c5cncc(N)c5)cc4c32)c(C)n1
-- ask Parameter check: reported IC50 is higher for which label, I or II ? Refer to your chosen entry by its label in the reply.
-- reply II
(II: 49 nM, I: 32 nM)
